The compounds listed here are annotated with their %Inh.
- System: MST3;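 also: KINOMEscan kinase panel screen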
- Construct: gene STK24
- measurement.setup: concentration: 1 μM, replicates: in singlicate; n = 1
Give just the numeric value; % need not be written.

The following compounds have reported results that may help.
compound: O=C(Nc1n[nH]c2nc(-c3ccccc3)c(Br)cc12)C1CC1
%Inh [%]: 0
--
compound: O=C1NC(=O)C(c2ccccc2)=C1Nc1cccc(O)c1
%Inh [%]: 0
--
compound: OCCCNc1nccc(-c2c(-c3cccc(C(F)(F)F)c3)nn3cc(C(F)(F)F)ccc23)n1
%Inh [%]: 25
--
compound: Fc1cccc(CSc2nnc(-c3ccc4c(c3)CCO4)o2)c1
%Inh [%]: 0

The reported MST3 %Inh of C[C@@H]1CC[C@H](C(=O)NC2CCCCC2)CN1c1cc(-c2ccc3c(N)n[nH]c3c2)nc(N)n1 is 14

The reported MST3 %Inh of O=C(Nc1ccc2c(c1)OCO2)NC1CCN(c2ccnc(NCc3ccc(F)cc3)n2)CC1 is 0

The reported MST3 %Inh of Nc1nc(N)c2nc(-c3ccccc3)[nH]c2n1 is 13

The reported MST3 %Inh of O=C(Nc1n[nH]c2nc(-c3ccccc3)c(Cl)cc12)C1CC1 is 0

The reported MST3 %Inh of COc1cc2ncn(-c3cc(OCCCc4ccccc4)c(C(N)=O)s3)c2cc1OC is 11

// provenance: paper PMC5540273
